Taken from the Immune Epitope Database (IEDB).

# System tested: HLA-B*35:01
# Assay overview: IEDB peptide-MHC binding, purified MHC/competitive/radioactivity; filed as Kd, often an IC50 or EC50 that approximates it; bounds were set here for any values at or beyond the usual limits of such assays
# Assay context: source organism: Dengue virus 2 Jamaica/1409/1983
Readout type: Kd (µM)
Respond numerically; units are µM and should not be typed.

Data request: GET /values?readout=Kd&item= LMCHATFTM
Data returned: 1.6

---

# System tested: HLA-B*07:02
# Assay overview: IEDB peptide-MHC binding, purified MHC/direct/fluorescence; filed as Kd, often an IC50 or EC50 that approximates it; bounds were set here for any values at or beyond the usual limits of such assays
# Assay context: source organism: Pseudomonas aeruginosa
Readout type: pKd
The scale used: pKd is minus the common logarithm of the concentration in molar units.

Data request: I am curious: what pKd value has been reported for RLTGREGAV ?
Data returned: 5.15

---

# System tested: HLA-A*33:01
# Assay overview: IEDB peptide-MHC binding, purified MHC/competitive/radioactivity; filed as Kd, often an IC50 or EC50 that approximates it; bounds were set here for any values at or beyond the usual limits of such assays
# Assay context: source organism: Vaccinia virus WR
Readout type: Kd (nM)
Just the number in nM, nothing appended.

Answered cases to consult:
Sequence entry: DLIVTFRERY
Kd / nM: 1240

Sequence entry: NIADAARHY
Kd / nM: 7730

Sequence entry: QTTVNTLSER
Kd / nM: 155

Data request: What measured Kd goes with CFKEASFSK ?
Data returned: 11.6

Data request: Please answer likewise for NFDYPFFRK
Data returned: 308

Data request: Cool, now VTSLAIKNYY
Data returned: 420

Data request: How about this sequence: IIFLKLFKK
Data returned: 4.85

Data request: Try this sequence next: VIPFDDIVR
Data returned: 302

Data request: Also, FFRKLVLTNK please.
Data returned: 243

Data request: Would you kindly repeat that for VTISKDNLER ?
Data returned: 357

Data request: Here is the next sequence: TLSPAHLINK
Data returned: 11400

Data request: Okay, and KSTVKLVQR ?
Data returned: 1480

Data request: Please answer likewise for NSFIISTLNK
Data returned: 4460

---

# System tested: HLA-B*08:01
# Assay overview: IEDB peptide-MHC binding, purified MHC/competitive/fluorescence; filed as Kd, often an IC50 or EC50 that approximates it; bounds were set here for any values at or beyond the usual limits of such assays
# Assay context: source organism: Francisella tularensis subsp. tularensis FSC198
Readout type: Kd

Data request: What value of measured Kd is listed for KRINSLIKY ?
Data returned: ≥ 20 µM

---

# System tested: HLA-A*24:03
# Assay overview: IEDB peptide-MHC binding, purified MHC/direct/fluorescence; filed as Kd, often an IC50 or EC50 that approximates it; bounds were set here for any values at or beyond the usual limits of such assays
# Assay context: source organism: Zaire ebolavirus
Readout type: Kd

Use these answered entries as a reference point.
Sequence entry: GIVSSMHYK
System tested: HLA-A*24:03
Kd: ≥ 20 µM
//
Sequence entry: AENCYNLEI
System tested: HLA-A*24:03
Kd: ≥ 20 µM

Turning now to a further record.
Data request: Please report the recorded Kd for DRLASTVIY .
Data returned: ≥ 20 µM
